Experiment: Hydrolysis rate / drug release rate of the compounds (release of JAK inhibitor, HPLC)
Assay type: physicochemical
Settings: % release of JAK inhibitor from sample in acetonitrile/water=7/3 (v/v), 37° C. constant temperature shaker, sampled days 1-4, HPLC
Definition: the class of an entry is the range in low = under 0.7 %/day, moderate = from 0.7 %/day up to 6 %/day, high = 6 %/day and over that contains its Release Rate (%/day).

compound	class assignment
CC(C(=O)n1ccc2c(-c3cnn([C@H](CC#N)C4CCCC4)c3)ncnc21)c1ccc(CC2CCCC2=O)cc1 (some centres unmarked) [Ex. 77]	moderate
CNS(=O)(=O)C[C@H]1CC[C@H](N(C)c2ncnc3c2ccn3COC(=O)c2ccccc2Nc2cccc(Cl)c2C)CC1 [Ex. 120]	low
C[C@@H]1CCN(C(=O)CC#N)C[C@@H]1N(C)c1ncnc2c1ccn2C(=O)Cc1ccccc1Nc1c(Cl)cccc1Cl [Ex. 9]	high
CNS(=O)(=O)C[C@H]1CC[C@H](N(C)c2ncnc3c2ccn3C(=O)Cc2ccc(NC(C)=O)cc2)CC1 [Ex. 58]	high
CC[C@@H]1CN(C(=O)NCC(F)(F)F)C[C@@H]1c1cnc2cnc3c(ccn3C(=O)[C@@H](C)c3ccc4cc(OC)ccc4c3)n12 [Ex. 131]	moderate
CNS(=O)(=O)C[C@H]1CC[C@H](N(C)c2ncnc3c2ccn3C(=O)C(C)c2cccc(Oc3ccccc3)c2)CC1 (some centres unmarked) [Ex. 68]	high
CC(C)Cc1ccc([C@H](C)C(=O)n2ccc3c(-c4cnn([C@H](CC#N)C5CCCC5)c4)ncnc32)cc1 [Ex. 28]	moderate
CCS(=O)(=O)N1CC(CC#N)(n2cc(-c3ncnc4c3ccn4C(=O)c3ccccc3Nc3cccc(C)c3C)cn2)C1 [Ex. 47]	low
CCS(=O)(=O)N1CC(CC#N)(n2cc(-c3ncnc4c3ccn4COC(=O)C(C)c3ccc(-c4ccccc4)c(F)c3)cn2)C1 (centres unmarked) [Ex. 69]	low
CCS(=O)(=O)N1CC(CC#N)(n2cc(-c3ncnc4c3ccn4C(=O)C(C)c3ccc(-c4ccccc4)c(F)c3)cn2)C1 (centres unmarked) [Ex. 20]	moderate
C[C@@H]1CCN(C(=O)CC#N)C[C@@H]1N(C)c1ncnc2c1ccn2C(=O)[C@@H](NC(=O)OC(C)(C)C)c1ccccc1 [Ex. 16]	high
CC(C(=O)OCn1ccc2c(N(C)[C@H]3CN(C(=O)CC#N)CC[C@H]3C)ncnc21)c1ccc(CC2CCCC2=O)cc1 (some centres unmarked) [Ex. 53]	low
